Assay: NCI Yeast Anticancer Drug Screen. Data for the sgs1 mgt1 strain (AID 161)
Details: S. cerevisiae sgs1 mgt1 strain, at 50.0 µM, hits give high values
This is part of a sample that, as a whole, favours compounds with a hit. Of some 79,000 tested, about 15% had one in any assay.
Each entry gets Not satisfied if its growth inhibition stays under 60%, and Satisfied if its growth inhibition is 60% or above.

[
  {
    "compound": "CC(CC(C#CCN(C)C)N(C)C)CC(C)(C)C (centres undefined)",
    "group-label": "Not satisfied"
  },
  {
    "compound": "NC(N)=NC(N)=Nc1ccc(-c2ccccc2)cc1",
    "group-label": "Not satisfied"
  },
  {
    "compound": "CC(=O)Oc1cc(Cl)ccc1Cc1ccc(Cl)cc1OC(C)=O",
    "group-label": "Satisfied"
  },
  {
    "compound": "CCOC(=O)C1=C(C)NC(C)=C(C(=O)OCC)C1c1ccnc2ccccc12",
    "group-label": "Not satisfied"
  },
  {
    "compound": "CCCCCCCCC(=O)Cl",
    "group-label": "Satisfied"
  },
  {
    "compound": "CC(C)SC(=S)Nc1ccc(Cl)c([N+](=O)[O-])c1",
    "group-label": "Satisfied"
  },
  {
    "compound": "C=C1CCCCC1C(C(=O)O)(c1ccccc1)c1ccccc1 (centres undefined)",
    "group-label": "Satisfied"
  },
  {
    "compound": "Cc1cccc2c1NC(c1c(C)[nH]c3ccccc13)C2 (centres undefined)",
    "group-label": "Not satisfied"
  },
  {
    "compound": "COC(=O)/N=C/CCC(O)NC(=O)OC (centres undefined)",
    "group-label": "Not satisfied"
  },
  {
    "compound": "CCCCC(O)(c1ccccc1)C(O)(c1ccccc1)c1c(F)c(F)c(F)c(F)c1F (centres undefined)",
    "group-label": "Satisfied"
  },
  {
    "compound": "O=C1c2c(Br)sc(Br)c2[C@@H](NC(=O)C(F)(F)F)C1Br (some centres undefined)",
    "group-label": "Satisfied"
  },
  {
    "compound": "O=S(=O)(OCC#CCOS(=O)(=O)c1ccc(Cl)c(Cl)c1)c1ccc(Cl)c(Cl)c1",
    "group-label": "Not satisfied"
  },
  {
    "compound": "CC(CC=NCCN=CCC(C)CC(C)(C)C)CC(C)(C)C (centres undefined)",
    "group-label": "Satisfied"
  },
  {
    "compound": "C[C@H]1CC[C@@H]2[C@@H](C)[C@H]3[C@H](C[C@H]4[C@@H]5CC=C6C[C@@H](O)CC[C@]6(C)[C@H]5C[C@H](O)[C@]34C)N2C1",
    "group-label": "Not satisfied"
  },
  {
    "compound": "O=C1c2ccccc2C(=O)C2(C(c3ccccc3)c3ccccc3)N=NCC12 (centres undefined)",
    "group-label": "Not satisfied"
  },
  {
    "compound": "O=C(OC1C2CCC2C2CC21)c1cc([N+](=O)[O-])cc([N+](=O)[O-])c1 (centres undefined)",
    "group-label": "Not satisfied"
  },
  {
    "compound": "Cc1ccccc1NC(=O)C(=O)C(C#N)c1c(Cl)cccc1Cl (centres undefined)",
    "group-label": "Not satisfied"
  },
  {
    "compound": "Cn1sc2ccccc2c1=S",
    "group-label": "Satisfied"
  },
  {
    "compound": "COC1=CC(=O)c2ncccc2C1=O",
    "group-label": "Satisfied"
  },
  {
    "compound": "CN1C/C(=C\\c2ccc(Cl)cc2)C(=O)/C(=C/c2ccc(Cl)cc2)C1",
    "group-label": "Satisfied"
  },
  {
    "compound": "N#CSCCl",
    "group-label": "Satisfied"
  },
  {
    "compound": "Oc1ccc(O)c2nc3ccccc3nc12",
    "group-label": "Not satisfied"
  },
  {
    "compound": "O=Cc1cc([N+](=O)[O-])ccc1O",
    "group-label": "Satisfied"
  }
]
